- System: Vero
- assay remarks: Cytotoxicity against african green monkey Vero cells by neutral red assay upto 16.72 uM
- Type: cell-based
- condition info: chlorocebus sabaeus

compound: c1ccc(C2OOC3(CCCCCC3)OO2)cc1
Activity: Non-toxic

compound: Clc1ccccc1C1OOC2(CCCCC2)OO1
Activity: Non-toxic

compound: Clc1ccc(C2OOC3(CCCCCC3)OO2)cc1
Activity: Non-toxic

compound: c1ccc(C2OOC3(CCCCC3)OO2)cc1
Activity: Non-toxic

compound: CCN(CC)CCCC(C)Nc1ccnc2cc(Cl)ccc12 (stereo not drawn)
Activity: Non-toxic

compound: Brc1ccc(C2OOC3(CCCCC3)OO2)cc1
Activity: Non-toxic

compound: Clc1ccc(C2OOC(c3ccc(Cl)cc3)OO2)cc1 (stereo not drawn)
Activity: Non-toxic

compound: Fc1ccc(C2OOC(c3ccc(F)cc3)OO2)cc1 (stereo not drawn)
Activity: Non-toxic

compound: Cc1ccc(C2OOC(c3ccc(C)cc3)OO2)cc1 (stereo not drawn)
Activity: Non-toxic

compound: Brc1ccc(C2OOC(c3ccc(Br)cc3)OO2)cc1 (stereo not drawn)
Activity: Non-toxic

compound: Clc1ccc(C2OOC3(CCCC3)OO2)cc1
Activity: Non-toxic

compound: Cc1ccccc1C1OOC(c2ccccc2C)OO1 (stereo not drawn)
Activity: Non-toxic

compound: Clc1ccc(C2OOC3(CCCCC3)OO2)cc1
Activity: Non-toxic
